testedTarget: T1, hCD137 (FXa digested) (human, UniProt Q07011 24-186)
T1 construct: Factor Xa digestion and Protein A removed the Fc; also called human CD137 extracellular domain
T1 sequence (Q07011 other isoform, or with tags, fused parts or gaps limits assumed): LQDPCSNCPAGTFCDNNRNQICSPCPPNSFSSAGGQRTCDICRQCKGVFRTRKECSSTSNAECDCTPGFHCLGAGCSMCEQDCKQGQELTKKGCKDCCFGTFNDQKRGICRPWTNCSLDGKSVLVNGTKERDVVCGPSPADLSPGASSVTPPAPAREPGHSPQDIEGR
testSummary: SPR, 10 uM ADP
readout: binding amount (RU)
Answer in RU, number only, no unit symbol.

Any idea what its binding amount is? The binder is dBBAT122-P253 (antibody, human IgG1, lambda, V domains shown) VH: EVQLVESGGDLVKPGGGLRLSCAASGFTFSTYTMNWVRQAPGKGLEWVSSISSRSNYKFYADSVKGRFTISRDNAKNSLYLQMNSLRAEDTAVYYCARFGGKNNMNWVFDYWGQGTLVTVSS VL: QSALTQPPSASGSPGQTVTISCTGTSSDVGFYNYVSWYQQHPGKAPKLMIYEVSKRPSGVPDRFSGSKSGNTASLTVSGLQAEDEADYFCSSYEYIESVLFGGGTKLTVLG
19.2
